IC50: recorded values
System: NCI-H460
Measurement Description: Cytotoxicity against human H460 cells after 72 hrs by MTT assay
Assay type: functional, cell-based
Protocol Conditions: NCI-H460, 72 h
Readout Name: IC50 (µM)

>>> assay_result("CCN(CC)c1ccc(/C=C(\\C#N)c2nc3ccccc3[nH]2)c(O)c1")
11
>>> assay_result("Cn1ccc2cc(C#N)c3nc4ccccc4n3c21")
22
>>> assay_result("N#Cc1cc2ccsc2n2c1nc1ccccc12")
30
>>> assay_result("N#Cc1cc2ccc(F)cc2n2c1nc1ccccc12")
26
>>> assay_result("COc1ccc(OC)c(/C=C(\\C#N)c2nc3ccccc3[nH]2)c1")
27
>>> assay_result("COc1ccc(OC)c2c1cc(C#N)c1nc3ccccc3n12")
14
>>> assay_result("CC(=O)Nc1ccc2cc(C#N)c3nc4ccccc4n3c2c1")
90
>>> assay_result("N#Cc1cc2ccncc2n2c1nc1ccccc12")
57
>>> assay_result("N#Cc1cc2ccc(Br)cc2n2c1nc1ccccc12")
37
>>> assay_result("Cn1cccc1/C=C(\\C#N)c1nc2ccccc2[nH]1")
26
>>> assay_result("Cc1ccc(/C=C(\\C#N)c2nc3ccccc3[nH]2)cc1")
81
>>> assay_result("N#C/C(=C\\c1ccc(F)cc1)c1nc2ccccc2[nH]1")
43
>>> assay_result("N#C/C(=C\\c1ccncc1)c1nc2ccccc2[nH]1")
78
>>> assay_result("N#Cc1ccc2cc(C#N)c3nc4ccccc4n3c2c1")
23

====

Test system: Calf thymus DNA
Measurement Description: Binding affinity to calf thymus DNA assessed as change in melting temperature at compound/polynucleotide ratio 3 in sodium cacodylate buffer at pH 7
Format: nucleic-acid assay
Protocol Conditions: Bos taurus; in the assay text read “compound/polynucleotide ratio 0.3” for “compound/polynucleotide ratio 3”
Recorded ΔTm, one value per entry.
Readout Name: ΔTm (°C)

>>> assay_result("Cc1ccc(/C=C(\\C#N)c2nc3ccccc3[nH]2)cc1")
2.9
>>> assay_result("Cc1ccc2cc(C#N)c3nc4ccccc4n3c2c1")
4.8
>>> assay_result("N#Cc1cc2ccc(F)cc2n2c1nc1ccccc12")
4.4
>>> assay_result("Cn1cccc1/C=C(\\C#N)c1nc2ccccc2[nH]1")
0.4
>>> assay_result("COc1ccc(OC)c2c1cc(C#N)c1nc3ccccc3n12")
4.2
>>> assay_result("Cn1ccc2cc(C#N)c3nc4ccccc4n3c21")
2.4

====

System: NCI-H460
Measurement Description: Cytotoxicity against human H460 cells after 72 hrs by MTT assay
Assay type: functional, cell-based
Protocol Conditions: NCI-H460, 72 h
pIC50: −log10 of the molar value.
Readout Name: pIC50

>>> assay_result("N#C/C(=C\\c1ccco1)c1nc2ccccc2[nH]1")
"< 4.30"
>>> assay_result("N#C/C(=C\\c1cccs1)c1nc2ccccc2[nH]1")
"< 4.30"
>>> assay_result("N#C/C(=C\\c1cnc[nH]1)c1nc2ccccc2[nH]1")
"< 4.00"
>>> assay_result("Cc1ccc2cc(C#N)c3nc4ccccc4n3c2c1")
"< 4.00"
>>> assay_result("N#C/C(=C\\c1ccc(Br)cc1)c1nc2ccccc2[nH]1")
"< 4.30"
>>> assay_result("CC(=O)Nc1ccc(/C=C(\\C#N)c2nc3ccccc3[nH]2)cc1")
"< 4.00"
>>> assay_result("CN(C)c1ccc(/C=C(\\C#N)c2nc3ccccc3[nH]2)cc1")
"< 4.30"
